# STUDY SYSTEM: ETS1 (UniProt P14921)
# Sequence: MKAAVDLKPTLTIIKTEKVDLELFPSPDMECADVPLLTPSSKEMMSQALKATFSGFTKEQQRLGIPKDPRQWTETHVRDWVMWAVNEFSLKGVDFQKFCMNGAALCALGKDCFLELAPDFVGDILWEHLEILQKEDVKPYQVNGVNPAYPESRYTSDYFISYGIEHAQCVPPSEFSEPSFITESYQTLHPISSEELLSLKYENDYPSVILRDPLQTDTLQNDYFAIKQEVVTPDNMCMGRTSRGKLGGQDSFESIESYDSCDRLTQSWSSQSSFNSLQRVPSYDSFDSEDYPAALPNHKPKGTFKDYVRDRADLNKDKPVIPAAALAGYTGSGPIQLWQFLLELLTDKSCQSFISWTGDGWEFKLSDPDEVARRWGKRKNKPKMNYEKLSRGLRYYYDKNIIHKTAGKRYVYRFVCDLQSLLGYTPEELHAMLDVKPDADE
# ASSAY INFO: ETS1 binding intensity (PBM fluorescence), ETS1 alone (arbitrary fluorescence units); higher = stronger binding
# MEASUREMENT PARAMETERS: ETS1 concentration 1 nM; RUNX1 concentration 0 nM
Recorded ETS1 binding intensity for the following sequences
Provide a numeric answer; units are not to be included.

# example entries with known answers
Challenge: Reported ETS1 binding intensity, sequence AGGGTTGGGGAGGATGTTGTGGTTATTATTGACATA : ____
Response given: 845

Challenge: Reported ETS1 binding intensity, sequence GCGCTTCCTGCCAGCTTGGAGGATAACCGCCTACCG : ____
Response given: 505

Challenge: Reported ETS1 binding intensity, sequence TATGGGGCCGGAAGCCATTCACCACAAACACTGTGT : ____
Response given: 2430

Continuing:
Challenge: Reported ETS1 binding intensity, sequence GCTCCCGGATGTTCTGGGGATCTGCGGCCGCCTGGC : ____
Response given: 1300

Challenge: Reported ETS1 binding intensity, sequence GGCTTTCCGTTCAAGGATCTTTTTGCGGTCTTTGTC : ____
Response given: 445

###

Recorded TF binding intensity for the following sequences
# STUDY SYSTEM: ETS1 (UniProt P14921)
# Sequence: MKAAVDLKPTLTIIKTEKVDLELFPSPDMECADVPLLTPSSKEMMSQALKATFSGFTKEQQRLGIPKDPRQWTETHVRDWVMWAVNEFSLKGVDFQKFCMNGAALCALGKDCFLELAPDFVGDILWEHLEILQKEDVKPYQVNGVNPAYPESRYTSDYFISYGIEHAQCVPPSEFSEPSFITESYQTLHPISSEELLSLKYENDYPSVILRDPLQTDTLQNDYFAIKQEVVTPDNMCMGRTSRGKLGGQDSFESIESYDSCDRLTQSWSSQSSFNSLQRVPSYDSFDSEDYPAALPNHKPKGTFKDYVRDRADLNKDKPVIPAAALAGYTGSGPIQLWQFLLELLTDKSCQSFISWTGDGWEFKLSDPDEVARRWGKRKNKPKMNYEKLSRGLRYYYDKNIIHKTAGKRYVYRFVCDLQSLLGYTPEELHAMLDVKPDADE
# ASSAY INFO: TF binding intensity (PBM fluorescence), negative control probe (arbitrary fluorescence units); higher = stronger binding
Provide a numeric answer; units are not to be included.

# example entries with known answers
Challenge: Reported TF binding intensity, sequence GTTGGGCCCCCTGGGCCTTGTTCTCGGGATCCAGGG (protein concentration 10 nM) : ____
Response given: 111

Challenge: Reported TF binding intensity, sequence GTTAAGTACCTGAATGAGCACTGGACCAGAGCCGGG (protein concentration 10 nM) : ____
Response given: 106

Challenge: Reported TF binding intensity, sequence AAGTATTGTAGTTGTTGTGGTAAAAACAGATAGATA (protein concentration 1 nM) : ____
Response given: 529

Challenge: Reported TF binding intensity, sequence CCTGAGGCCTGCCCCAGTCACCTGTATTTACCCTGC (protein concentration 10 nM) : ____
Response given: 122

Challenge: Reported TF binding intensity, sequence TAGGTTCTAGCCTGCTTAGCTAGAGTTTAGTTTATT (protein concentration 10 nM) : ____
Response given: 110

Continuing:
Challenge: Reported TF binding intensity, sequence CACCTCCTAAACAAAGCCGCATAGGTGATGGTGATG (protein concentration 1 nM) : ____
Response given: 463

Challenge: Reported TF binding intensity, sequence CTGTTGTTTGACTTTAGTCATCTCCTACTTTTATAG (protein concentration 10 nM) : ____
Response given: 137

Challenge: Reported TF binding intensity, sequence ATAAAGTACATTAATTCATTCATCCAGCAAGAGTGT (protein concentration 10 nM) : ____
Response given: 122

Challenge: Reported TF binding intensity, sequence GAAGTTTCAAGATGTAGTAGTTAAAGTATTAACTTA (protein concentration 10 nM) : ____
Response given: 113
